The measurements presented in this section are drawn from ChEMBL document CHEMBL1151550.

Molecular target: Peptidyl-prolyl cis-trans isomerase FKBP1A (Homo sapiens)
Sequence (P62942 whole entry): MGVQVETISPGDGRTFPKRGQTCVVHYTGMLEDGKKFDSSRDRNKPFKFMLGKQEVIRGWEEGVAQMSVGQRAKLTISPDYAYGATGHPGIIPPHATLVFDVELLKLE
ASSAY ENDPOINT: Ki (nM)

A: C/C=C\C(OC)[C@@H]1CC[C@@H](C)[C@](O)(C(=O)C(=O)N2CCCC[C@H]2C(=O)OCc2ccccc2)C1 (some centres not stated)
B: COC[C@@H]1CC[C@@H](C)[C@](O)(C(=O)C(=O)N2CCCC[C@H]2C(=O)OCc2ccccc2)C1
Form field 'greater Ki' accepts A or B ; which applies? Reply with the label of the item you choose.
B
